Reference for the values: PubChem BioAssay (EPA / NIEHS)

# Read-out: Interleukin 6 Receptor (IL6R), IL6R (gene 3570)
# assay.notes: LTEA_HepaRG_IL6R: Life Technologies and Expression Analysis (LTEA) Assay for Interleukin 6 Receptor (IL6R) using HepaRG (AID 2283510)
# measurement.parameters: mRNA level, 48 h; actives raise or lower the signal
The source made the active and inactive calls. How the source made its calls: active means hit-call score of the fitted dose curve at least 0.9, where 1 is the maximum; inactive means score below 0.9.
# output must be one of active, inactive

molecule=Cc1cc(=O)[nH]c(=S)[nH]1 group_label=inactive
molecule=CN[C@H]1CC[C@@H](c2ccc(Cl)c(Cl)c2)c2ccc(S(N)(=O)=O)cc21 group_label=active
molecule=CC(=O)OC/C=C(\C)CCC=C(C)C group_label=inactive
molecule=CCOC(=O)C(C)(C)Oc1ccc(Cl)cc1 group_label=inactive
molecule=CCCCCCCCCCO group_label=inactive

Kindly provide the recorded test outcome for the following molecule: Nc1ccc(S(=O)(=O)c2ccc(N)cc2)cc1
inactive

Dear all, I need the recorded test outcome for C[C@]12C=CC(=O)C=C1CC[C@@H]1[C@@H]2C(=O)C[C@@]2(C)[C@H]1CC[C@]2(O)C(=O)CO , thank you.
inactive

Which outcome was entered for the molecule CNC(=O)[C@H]1O[C@@H](n2cnc3c(NCc4cc(Cl)ccc4OCc4cc(C)no4)ncnc32)[C@H](O)[C@@H]1N in this test?
inactive

Lab log entry: C[Si]1(C)O[Si](C)(C)O[Si](C)(C)O[Si](C)(C)O1 — outcome as called in the assay?
inactive

* * *

# assay.notes: STM_H9_OrnCyssISnorm_ratio: Stemina devTOX quickPredict H9 human embryonic stem cell (hESC)-based Assay for Ornithine (ORN):Cystine (CYSS) Ratio (AID 2283714)
Inconclusive results are not listed. Calls of active or inactive are those of the source. How the source made its calls: active means hit-call score of the fitted dose curve at least 0.9, where 1 is the maximum; inconclusive means response in the unintended direction; inactive means score below 0.9.
// allowed return values: Y (active), N (inactive)

compound=Cc1c(C(=O)O)c(O)cc2c1C(=O)c1c(O)c([C@@H]3O[C@H](CO)[C@@H](O)[C@H](O)[C@H]3O)c(O)c(O)c1C2=O group_label=N
compound=CN1CCN(Cc2cc(-c3ccc4[nH]c(=O)oc4c3)co2)[C@@H](c2ccc(F)cc2)C1 group_label=Y
compound=C=CCOC(=O)c1ccccc1C(=O)OCC=C group_label=Y
compound=COc1ccc2c(c1)c(CC(=O)O)c(C)n2C(=O)c1ccc(Cl)cc1 group_label=Y
compound=COC(=O)c1ccc(O)cc1 group_label=N

Which outcome was entered for the compound CCCc1cc(=O)[nH]c(=S)[nH]1 in this test?
N

Per the records of this test, what outcome belongs to CCCCC(CC)COC(=O)CC(C(=O)OCC(CC)CCCC)S(=O)(=O)O (configuration not stated) ?
N

Which outcome was entered for the compound OC[C@@H](O)[C@@H](O)[C@H](O)[C@H](O)CO in this test?
N

Just curious, what result did O=C(O)Cc1ccccc1Nc1c(Cl)cccc1Cl get here?
N

Hello, I am checking results. What call was entered for COCCOCCOC ?
N

Called result for Nc1ccccc1N
Y

In this assay, the call recorded for Oc1ccc2ccccc2c1N=Nc1ccccc1 was what?
N

* * *

# assay.notes: BSK_4H_Eotaxin3: BioMAP Diversity Plus: 4H Assay for Eotaxin 3 Biomarker Activity (AID 2283000);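 further: CCL26 protein level quantified by ELISA in parallel with SRB cytotoxicity check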
# measurement.parameters: primary human endothelial cells (HUVEC); actives raise or lower the signal
The source made the active and inactive calls. How the source made its calls: active means hit-call score of the fitted dose curve at least 0.9, where 1 is the maximum; inactive means score below 0.9.
I would appreciate it if you answered using one of these outcomes: 1 (active), -1 (inactive)

compound=COc1ccc(C)cc1N group_label=-1
compound=CCCCCCCCCCCCCCCCCC(=O)O group_label=-1

Recorded test call requested for CNC(=O)[C@H]1O[C@@H](n2cnc3c(NCc4cc(Cl)ccc4OCc4cc(C)no4)ncnc32)[C@H](O)[C@@H]1N
-1

Record lookup: outcome of this test for CCCCCCCCCCCCCCCC ?
-1
